Below is a list of entries, each paired with its recorded % parasite recognition value.
target: erythrocytes infected with P. falciparum field isolate 11014; experiment: flow cytometry, staining of IEs
Write the figure, then the unit, nothing else.

Briefly, % parasite recognition measured for MGD47 (antibody) VH: QVRLQESGPGLVKPSGTLSLTCTVSGGSISGYKWWSWVRQAPGKGLEWIGQVYDDGDTNYNPDLKGRVALSVDKSKSRFSLSLASVTAADTAIYFCATISPLRPQSDTGDLPRPSISAEPGTAIPLGSQVTFVCRGPIGVQTFRLERESRALYNDSEDVSQVSPSASEARFRIDSVSEGNAGPYRCIYYKARRWSDQSDYLELLVKGEDVTWALPQSQLAPRACPQEDLNISTDIFSTNVWGKGTTVTVSS VL: AIRMTQSPASLSASVGDRVTITCRTSQDVGNYLDWYQQKPGKAPKLLIHGASTLQAGVPSRFNGSGSGTDFTLGISCVQSGDFAIYYCQQYYTSPPVFGQGTRLEIK : 10.2%

Briefly, % parasite recognition measured for MGC4 (antibody) VH: EVQLVESGGGLVQPGGSLRLSCEGSGFNSRSYWMTWVRQAPGKGLEWVASINQDGTEKNYVDSVKGRFTISRDSAKNSLYLQMSSLRADDTAVYYCARDRFCGGESHLHGEEDLPRPSISAEPDTVIPLGSHVTFVCRGPVGVHTFRLERGWRYNDTEDVSQAGPSESEARFRIDSVREGNAGLYRCIYYIAPKWSEQSDYLELRVKGGDVTWALLTYCGGDGEESDYPMDVWGKGTTVTVSS VL: QTVVTQEPSLTVSPGGTVTLTCASSTGPVTSAYYPNWFQQKPGQAPRSLIYSINKKHSWTPARFSGSLLGGKAALTLSGVQPEDEADYYCLLSCGGAQPWVFGGGTKLTVQ : 3.6%
